Test: Inhibition of influenza A virus (A/WSN/1933(H1N1)) neuraminidase using MUNANA as fluorogenic substrate preincubated for 10 mins followed by substrate addition and measured after 15 mins by fluorometric assay
Readout Name: pIC50
One number for each entry, as −log10 of the molar value.

// worked examples, pIC50 included
1. CCC(CC)O[C@@H]1C=C(S(C)(=O)=O)C[C@H](N)[C@H]1NC(C)=O; 6.74
2. CCC(CC)O[C@@H]1C=C([B-](F)(F)F)C[C@H](NC(=N)N)[C@H]1NC(C)=O; 7.70
3. CCC(CC)O[C@@H]1C=C(S(=O)(=O)CCc2ccncc2)C[C@H](N)[C@H]1NC(C)=O; 6.48
4. CCC(CC)O[C@@H]1C=C(S(=O)(=O)O)C[C@H](NC(=N)N)[C@H]1NC(C)=O; 8.89

Record pIC50 per entry; entries follow.
1. CCCCOS(=O)(=O)C1=C[C@@H](OC(CC)CC)[C@H](NC(C)=O)[C@@H](NC(=N)N)C1
2. CCC(CC)O[C@@H]1C=C(B(O)O)C[C@H](NC(=N)N)[C@H]1NC(C)=O
3. CCCCOS(=O)(=O)C1=C[C@@H](OC(CC)CC)[C@H](NC(C)=O)[C@@H](N)C1
4. CCC(CC)O[C@@H]1C=C(S(=O)(=O)CCc2ccncc2)C[C@H](NC(=N)N)[C@H]1NC(C)=O
5. CCC(CC)O[C@@H]1C=C(S(=O)(=O)O)C[C@H](N)[C@H]1NC(C)=O
6. CCC(CC)O[C@@H]1C=C([B-](F)(F)F)C[C@H](N)[C@H]1NC(C)=O

OUT:
1. 8.48
2. 7.55
3. 7.57
4. 8.01
5. 8.74
6. 5.47
